Could you please report measured protein stability index for the items listed next?
B1: RIPK4 (parent)
chain: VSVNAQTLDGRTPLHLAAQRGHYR

- Variants of: B1
- Procedure Details: protein stability index of a GFP-peptide fusion (GPS, HEK-293T) (PSI 1-6); higher = more stable;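 further: lentivirally expressed fusions sorted by FACS into six bins by GFP to DsRed ratio, PSI derived from sequencing read proportions per bin multiplied by bin number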
- Test Context: c terminus: a fixed tail appended
Simply state the number, no unit and no words.

Just so you know, measured protein stability index for H15Q came out at 4.11

Just so you know, measured protein stability index for Q6Y came out at 2.59

Just so you know, measured protein stability index for V1W came out at 3.5

Just so you know, measured protein stability index for T12Q came out at 3.57

Just so you know, measured protein stability index for G21T came out at 2.88

Just so you know, measured protein stability index for R11W came out at 2.85

Just so you know, measured protein stability index for S2P came out at 3.75

Just so you know, measured protein stability index for Y23Q came out at 3.96

Just so you know, measured protein stability index for N4W came out at 2.06

Just so you know, measured protein stability index for Y23V came out at 4

Just so you know, measured protein stability index for G10A came out at 3.2
